Target: UniProt Q9HBX9
Sequence (Q9HBX9 whole entry): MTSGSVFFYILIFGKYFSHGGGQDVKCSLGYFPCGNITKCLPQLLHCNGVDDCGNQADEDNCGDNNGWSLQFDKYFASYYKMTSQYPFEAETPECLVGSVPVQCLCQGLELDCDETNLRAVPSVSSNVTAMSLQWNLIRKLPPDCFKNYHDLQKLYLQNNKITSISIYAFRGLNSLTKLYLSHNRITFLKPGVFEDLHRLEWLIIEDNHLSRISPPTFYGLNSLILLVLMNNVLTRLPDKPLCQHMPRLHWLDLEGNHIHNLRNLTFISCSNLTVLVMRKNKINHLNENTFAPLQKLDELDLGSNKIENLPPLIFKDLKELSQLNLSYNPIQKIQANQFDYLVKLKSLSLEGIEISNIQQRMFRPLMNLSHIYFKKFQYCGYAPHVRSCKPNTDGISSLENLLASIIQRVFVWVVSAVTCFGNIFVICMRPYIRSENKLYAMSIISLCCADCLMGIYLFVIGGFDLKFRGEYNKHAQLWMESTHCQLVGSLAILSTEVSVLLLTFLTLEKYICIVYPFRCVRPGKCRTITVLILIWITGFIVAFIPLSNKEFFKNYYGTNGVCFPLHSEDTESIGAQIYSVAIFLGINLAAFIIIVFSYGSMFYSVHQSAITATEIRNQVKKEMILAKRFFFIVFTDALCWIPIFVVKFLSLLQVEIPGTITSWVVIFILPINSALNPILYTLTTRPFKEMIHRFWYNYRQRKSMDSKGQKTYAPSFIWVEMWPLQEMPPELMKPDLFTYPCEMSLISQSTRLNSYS
Format: functional, cell-based
Conditions: HEK293
observed-property: Efficacy (%)
Quick note: give the figure in %, leave out the unit.

The examples below pair each entry with its known result.
smiles-notation	reported-measurement
COc1ccccc1C(=O)Nc1ccccc1C(=O)Nc1cccc(C(F)(F)F)c1	99
COc1ccccc1C(=O)Nc1ccccc1C(=O)Nc1cccc(S(=O)(=O)C(F)(F)F)c1	99
O=C(Nc1cccc(C(F)(F)F)c1)c1ccccc1NC(=O)C1CCC1	75
CCOc1ccccc1C(=O)Nc1sccc1C(=O)Nc1cccc(S(=O)(=O)C(F)(F)F)c1	95
O=C(Nc1ccccc1C(=O)Nc1cccc(C(F)(F)F)c1)c1ccccc1Cl	92

Efficacy measured on O=C(Nc1cccc(C(F)(F)F)c1)c1ccccc1NC(=O)C1CCCC1 = 88

Sure, the documented Efficacy for CCOc1ccccc1C(=O)Nc1ncccc1C(=O)Nc1cccc(S(=O)(=O)C(F)(F)F)c1 is 98

Looking up O=C(NCc1ccco1)c1ccccc1NC(=O)c1ccccc1NC(=O)C1CCCCC1 , I see its Efficacy listed as 45

Value of Efficacy reported for the molecule COc1ccc(C(=O)Nc2ccccc2C(=O)Nc2cccc(C(F)(F)F)c2)cc1 is 71

Summary for this molecule, COc1ccccc1C(=O)Nc1ccccc1C(=O)N(C)c1cccc(C(F)(F)F)c1 : Efficacy is 77
